# System: HOP-92
# MEASUREMENT DESCRIPTION: NCI-60 single-dose screen
# Assay type: cell-based
# ASSAY CONDITIONS: Homo sapiens; HOP-92, 10^–5 M; read-out: GI (%)
Listing: inhibition at 10 µM of selected compounds
Give the number; % is assumed, so skip it.

Previously resolved entries follow.
COMPOUND	METRIC NAME	ENDPOINT UNIT	OBSERVED VALUE
O=C1C(Nc2ccc(I)cc2)=CC(c2ccc(F)cc2)N1c1ccc(I)cc1 (centres unmarked) [3b]	inhibition at 10 µM	%	36
O=C1C(Nc2ccc(I)cc2)=CC(c2ccc(C(F)(F)F)cc2)N1c1ccc(I)cc1 (centres unmarked) [3e]	inhibition at 10 µM	%	62
O=C1C(Nc2ccc(I)cc2)=CC(c2ccccc2)N1c1ccc(I)cc1 (centres unmarked) [3a]	inhibition at 10 µM	%	0
O=C1C(Nc2ccc(I)cc2)=CC(c2ccc(O)cc2)N1c1ccc(I)cc1 (centres unmarked) [3g]	inhibition at 10 µM	%	66

Now for the compound whose inhibition at 10 µM we want.
Assign inhibition at 10 µM to the following record: O=C1C(Nc2ccc(I)cc2)=CC(c2ccc(Cl)cc2)N1c1ccc(I)cc1 (centres unmarked) [3c]
27

###

# Tested on: RPMI-8226
# MEASUREMENT DESCRIPTION: NCI-60 single-dose screen
# Assay type: cell-based
# ASSAY CONDITIONS: Homo sapiens; RPMI-8226, 10^–5 M; read-out: GI (%)
# From the text: In the next step, all synthesized compounds were electronically submitted and accepted for testing to the National Cancer Institute (NCI) platform, for the single dose (10^−5 M) screening against a panel of 60 human tumor cell lines, representing leukemia, melanoma, and cancers of the lung, colon, central nervous system, ovary, kidney, prostate, and breast. The results are summarized in Table 2, with the best values highlighted in red (Figures S1–S14).
METRIC NAME: inhibition at 10 µM (%)
Give just the number in %; leave the unit off.

See these solved cases before continuing.
MOLECULE	inhibition at 10 µM (%)
O=C1C(Nc2ccc(I)cc2)=CC(c2ccc(O)c(O)c2)N1c1ccc(I)cc1 (centres unmarked) [3h]	100
O=C1C(Nc2ccc(I)cc2)=CC(c2ccc(F)cc2)N1c1ccc(I)cc1 (centres unmarked) [3b]	35
O=C1C(Nc2ccc(I)cc2)=CC(c2ccco2)N1c1ccc(I)cc1 (centres unmarked) [3m]	93
O=C1C(Nc2ccc(I)cc2)=CC(c2cc(C(F)(F)F)cc(C(F)(F)F)c2)N1c1ccc(I)cc1 (centres unmarked) [3f]	43

Field: next molecule
Supply recorded inhibition at 10 µM for N#Cc1ccc(C2C=C(Nc3ccc(I)cc3)C(=O)N2c2ccc(I)cc2)cc1 (centres unmarked) [3l] here.
83

###

# Tested on: SF-539
# MEASUREMENT DESCRIPTION: NCI-60 single-dose screen
# Type: cell-based
# ASSAY CONDITIONS: Homo sapiens; SF-539, 10^–5 M; read-out: GI (%)
METRIC NAME: inhibition at 10 µM (%)
Give the quantity in %, number only.

Check out these entries, answers already filled in.
MOLECULE	ENDPOINT UNIT	OBSERVED VALUE
O=C1C(Nc2ccc(I)cc2)=CC(c2ccc(F)cc2)N1c1ccc(I)cc1 (stereo not drawn) [3b]	%	51
COc1ccccc1C1C=C(Nc2ccc(I)cc2)C(=O)N1c1ccc(I)cc1 (stereo not drawn) [3i]	%	31
O=C1C(Nc2ccc(I)cc2)=CC(c2ccc(Br)cc2)N1c1ccc(I)cc1 (stereo not drawn) [3d]	%	0
COc1ccc(C2C=C(Nc3ccc(I)cc3)C(=O)N2c2ccc(I)cc2)cc1OC (stereo not drawn) [3j]	%	28

Name the recorded inhibition at 10 µM of the molecule listed here: O=C1C(Nc2ccc(I)cc2)=CC(c2ccco2)N1c1ccc(I)cc1 (stereo not drawn) [3m]
63

Retrieve inhibition at 10 µM measured for N#Cc1ccc(C2C=C(Nc3ccc(I)cc3)C(=O)N2c2ccc(I)cc2)cc1 (stereo not drawn) [3l] and print it.
35
